# credit: the METLIN SMRT retention time set (Domingo-Almenara et al. 2019)

Method Notes: gradient 5% acetonitrile 3 min, to 50% in 2 min, to 85% in 15 min, held 3 min, 100 µL/min
Condition Description: column: Zorbax Extend-C18 2.1 x 50 mm; eluents: water / acetonitrile, 0.1% formic acid
// reported RP-LC retention time per item
Lab book: enter the figure in s, no units written.

Consider the reported RP-LC retention time for these compounds:
{"columns": ["Compound", "Property Label", "Measured Value"],
 "data": [
  ["O=C(Nc1ccc(F)cc1F)C1CCN(S(=O)(=O)c2cc(C(=O)N3CCCC3)cs2)CC1", "RP-LC retention time", 803],
  ["O=C(Cc1ccc(Cl)cc1)N1CCc2nc(-c3ccc(Cl)cc3)ncc2C1", "RP-LC retention time", 1130]
]}

Supply recorded RP-LC retention time for CCCn1c(=O)c(C)nc2cc(-c3noc(/C=C/c4ccc(OC)cc4)n3)ccc21 here.
1210

Please supply the value of reported RP-LC retention time for the item CCOC(=O)CNC(=O)N1CCCC1c1ccccc1Cl (stereo not given)
804

Complete the entry with RP-LC retention time for O=C(Nc1ccc2c(c1)CN(C(=O)C1CC1)CC2)NC1CC1
632

====

Method Notes: gradient 5% acetonitrile 3 min, to 50% in 2 min, to 85% in 15 min, held 3 min, 100 µL/min
Condition Description: column: Zorbax Extend-C18 2.1 x 50 mm; eluents: water / acetonitrile, 0.1% formic acid
Use Satisfied when the recorded RP-LC retention time is no lower than 700 s; use Not satisfied when it is lower.

Use these answered entries as a reference point.
{"columns": ["Compound", "Assigned Class"],
 "data": [
  ["Cc1nc(-c2csc(S(=O)(=O)N3CCC(C(=O)NCCN4CCOCC4)CC3)c2)no1", "Not satisfied"],
  ["Clc1ccc(-c2csc(N3CCN(c4nc(-c5ccccc5)cs4)CC3)n2)cc1", "Satisfied"],
  ["CCn1cc(-c2nc(C(=O)Nc3ccc(F)c(C)c3)cs2)c2cccnc21", "Satisfied"],
  ["COC(=O)c1cc2c(=O)n(-c3nccs3)ccc2nc1C", "Satisfied"],
  ["COc1ccc(-c2nc(-c3ccc4c(c3)oc(=O)n4C(C)C)no2)c(C)c1", "Satisfied"],
  ["CN(C)CCCNC(=O)c1cc(-c2ccc(Cl)cc2)cn1C", "Not satisfied"],
  ["Cc1nnc2cc(N3CCN(C(=O)Nc4ccc5c(c4)OCCO5)CC3)cnn12", "Not satisfied"],
  ["O=C1COc2ccc(Cl)cc2N1Cc1nc(-c2ccc(N3CCOCC3)cc2)no1", "Satisfied"]
]}

Please check the record O=C(Nc1ccc(F)cc1)C1CCN(C(=O)c2ncn3c2COC(c2ccc(F)cc2)C3)CC1 (centres undefined) and state if its RP-LC retention time is at or above 700 s.
Satisfied

====

// RP-LC retention time lookup, one value per entry
Method Notes: gradient 5% acetonitrile 3 min, to 50% in 2 min, to 85% in 15 min, held 3 min, 100 µL/min
Condition Description: column: Zorbax Extend-C18 2.1 x 50 mm; eluents: water / acetonitrile, 0.1% formic acid
The reply should contain only the number, in s.

{"columns": ["Molecule", "RP-LC retention time [s]"],
 "data": [
  ["Cc1ccc(Cl)cc1-n1ncc2c(NCCN3CCOCC3)ncnc21", 629],
  ["CC(C)CNC(=O)C(=O)NCc1ccccn1", 552],
  ["COc1cccc(CNC(=O)CN2C(=O)NC3(CCC(C(C)(C)C)CC3)C2=O)c1OC (stereo not drawn)", 943],
  ["CCOC(=O)C1=C(CN2CCN(C(C)CC)CC2)NC(=O)NC1c1ccc(Cl)cc1 (stereo not drawn)", 663],
  ["CN(C)S(=O)(=O)c1ccc(C(=O)N2Cc3nn(C(C)(C)C)c(-n4cccc4)c3C2)cc1", 888]
]}

Identify measured RP-LC retention time corresponding to CCOC(=O)c1nc(Nc2ccc(OCC)cc2)c2ccccc2n1
806

State, in one line, measured RP-LC retention time of CCN1C(=O)COc2ccc(-c3nc(NC(=O)c4ccc(Cl)cc4)sc3C)cc21
1130

Provide one value: measured RP-LC retention time of CCc1cc(C(=O)Nc2ccc(C)c(C)c2)nc2ccnn12
1150

Please report the measured RP-LC retention time for O=C(NCCCN1CCC(Cc2ccccc2)CC1)C1CCCN(S(=O)(=O)N2CCCCC2)C1 (stereo not drawn)
745

Specify measured RP-LC retention time for CCC(=O)Nc1ccc2c(c1)CN(C(=O)c1ccc(Cl)cc1)C(C(=O)N1CCCC1)C2 (stereo not drawn) .
738

Specify reported RP-LC retention time for the molecule shown: COc1ccc2[nH]cc(CCNC(=O)C(C)n3c4ccccc4c4cnn(C)c(=O)c43)c2c1 (stereo not drawn)
813

Fill in RP-LC retention time for record O=c1c2sccc2n(Cc2nc(-c3ccc(Cl)cc3)no2)c(=O)n1-c1cccc(F)c1
1070

Quick one: give measured RP-LC retention time for CCNc1nc(C)cc(N2CCN(S(=O)(=O)c3ccc(OC)c(C)c3C)CC2)n1
764

Give me measured RP-LC retention time, please, for this molecule: COc1ccc(-n2c(SCc3nc(-c4ccc(C)cc4)no3)nnc2-c2ccncc2)cc1
1000

Output measured RP-LC retention time for this item: CCOC(=O)Cn1c(C2CC(=O)N(c3cc(OC)ccc3OC)C2)nc2ccccc21 (stereo not drawn)
725

Annotate the molecule COc1cccc(CN2CCCCCCNC(=O)[C@@H]3CCC[C@@H]32)n1 with its measured RP-LC retention time.
660

====

Method Notes: gradient 5% acetonitrile 3 min, to 50% in 2 min, to 85% in 15 min, held 3 min, 100 µL/min
Condition Description: column: Zorbax Extend-C18 2.1 x 50 mm; eluents: water / acetonitrile, 0.1% formic acid
Binary label based on RP-LC retention time with cut-off 900 s: below gives 1.0, not below gives 0.0.

Sample answers from the record:
{"columns": ["Molecule", "Assigned Class"],
 "data": [
  ["Cc1ccc(C(CC(=O)NCCN2CCOCC2)N2Cc3ccccc3C2=O)cc1 (stereo not given)", 1.0],
  ["Cc1nc(-c2cc(S(=O)(=O)Nc3ccc(Br)cc3)c(C)s2)cs1", 0.0],
  ["Cc1ccc(NC(=O)Nc2c(-c3ccncc3)nc3ccccn23)cc1F", 1.0],
  ["CCN(CC)CCNC(=O)COc1ccc(Cl)cc1", 1.0],
  ["Cc1c(C(=O)NCC2CC2)cnn1-c1ccc(-c2nc(C3CC3)no2)cn1", 1.0],
  ["O=C(C1CCN(S(=O)(=O)c2ccc(-c3ccn[nH]3)o2)CC1)N1CCN(c2ccccn2)CC1", 1.0],
  ["COC(=O)COc1cc(-c2ccccc2)nc2ccc(NS(=O)(=O)c3ccccc3)cc12", 1.0],
  ["CCOC(=O)N1CCN(c2ccc(C(F)(F)F)cc2[N+](=O)[O-])CC1", 0.0]
]}

Is RP-LC retention time of CN(Cc1ccccc1)C(=O)c1ccc(CN2CCN(C3CCCC3)C(=O)C2=O)cc1 strictly below 900 s?
1.0

====

Method Notes: gradient 5% acetonitrile 3 min, to 50% in 2 min, to 85% in 15 min, held 3 min, 100 µL/min
Condition Description: column: Zorbax Extend-C18 2.1 x 50 mm; eluents: water / acetonitrile, 0.1% formic acid
Rule: RP-LC retention time under 700 s gives False, otherwise True.

{"columns": ["Compound", "Assigned Class"],
 "data": [
  ["COc1cc(NC(=O)CCc2nc(-c3ccc(N4CCCC4)cc3)no2)cc(OC)c1", "True"],
  ["CCCn1cc(CCNC(=O)c2ccc(F)cc2Cl)c2cccnc21", "True"],
  ["COc1cc(-c2ccnc3nc(CCc4ccccc4)nn23)cc(OC)c1OC", "True"],
  ["Cc1noc(C2CN(C(=O)Nc3cc(F)cc(F)c3)CC23CCOCC3)n1 (stereo unspecified)", "True"],
  ["O=C(NCC1CCN(Cc2cccs2)CC1)C1(c2ccccc2)CCOCC1", "False"],
  ["CCSc1ccccc1C(=O)NC(C)Cc1ccco1 (stereo unspecified)", "True"]
]}

Evaluate CCCNC(=O)N1CCCCCC1CN1CCC(C)CC1 (stereo unspecified) : RP-LC retention time at minimum 700 s?
False

Test whether the compound Cc1ccc(NC(=O)NC2CCN(c3ccc(F)cc3)C2=O)cc1F (stereo unspecified) records RP-LC retention time of 700 s or higher.
True

Please check the record CCc1cc2c(N3CCCC(C(=O)NCCCN4CCN(C)CC4)C3)ncnc2s1 (stereo unspecified) and state if its RP-LC retention time is at or above 700 s.
False

Item CCOc1ccccc1NC(=O)N1CCN(CCNC(=O)c2ccc3c(c2)OCO3)CC1 with RP-LC retention time of 700 s or above?
False

Does the compound COc1cccc(NC(=O)Cn2nc(N3CCSCC3)c3ccccc3c2=O)c1 have recorded RP-LC retention time that is 700 s or more?
True

Given CNC(=O)CSc1nc(-c2ccccc2)c(NC(=O)COc2ccccc2F)s1 , state whether its RP-LC retention time is at least 700 s.
True
